Biological target: T1, human BMP-11 (GDF-11; R&D Systems) (human, UniProt O95390 299-407)
T1 sequence (looked up): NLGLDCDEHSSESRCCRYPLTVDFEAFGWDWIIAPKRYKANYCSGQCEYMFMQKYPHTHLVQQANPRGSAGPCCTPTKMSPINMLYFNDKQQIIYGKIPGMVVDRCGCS
Assay: cell-based or functional assay
assay_readout: ARE-luciferase IC50 (nM)

binder	assay_readout	reported
2987_C02 (designed binder) MGVSDVPRDLEVVAATPTSLLISWSLPYAGHAHYYRITYGETGGNSPVQEFTVPGRGVTATISGLKPGVDYTITVYAVTLTKSKIIHYMPISINYRTEIDKPSQHHHHHH	ARE-luciferase IC50	7.1
2987_A06 (designed binder) MGVSDVPRDLEVVAATPTSLLISWSLPHAGHAHYYRITYGETGGNSPVQEFTVPGRGVTATISGLKPGVDYTITVYAVTLTKSKIIHYMPISINYRTEIDKPSQHHHHHH	ARE-luciferase IC50	23
2987_E08 (designed binder) MGVSDVPRDLEVVAATPTSLLISWTLPHAGRAHYYRITYGETGGNSPVQEFTVPGRGVTATISGLKPGVDYTITVYAVTVSSTKVIHYKPISINYRTEIDKPSQHHHHHH	ARE-luciferase IC50	2.8

[1] 2525_D02 (designed binder) MGVSDVPRDLEVVAATPTSLLISWTLPHAGRAHYYRITYGETGGNSPVQEFTVPGRGVTATISGLKPGVDYTITVYAVTVTTTSVILYKPISINYRTEIDKPSQHHHHHH
[2] 3116_C06 (designed binder) MGVSDVPRDLEVVAATPTSLLISWSLPRPGNAHYYRITYGETGGNSPVQEFTVPGRGVTATISGLKPGVDYTITVYAVTVTGKDVIKYKPISINYRTEIDKPSQHHHHHH
Could you tell me which of these two has the smaller ARE-luciferase IC50 figure? First: 1 Second: 2 Identify your selection by its label.
1

[1] 3007_B08 (designed binder) MGVSDVPRDLEVVAATPTSLLISWSLPTPGLAHYYRITYGETGGNSPVQEFTVPGRGVTATISGLKPGVDYTITVYAVTVTHHGVIGYKPISINYRTEIDKPSQHHHHHH
[2] 2987_B09 (designed binder) MGVSDVPRDLEVVAATPTSLLISWTLPHAGRAHYYRITYGETGGNSPVQEFTVPGRGVTATISGLKPGVDYTITVYAVTLTRSKIIHYMPISINYRTEIDKPSQHHHHHH
[3] 2524_H05 (designed binder) MGVSDVPRDLEVVAATPTSLLISWSLPYSGLANYYRITYGETGGNSPVQEFTVPGRGVTATISGLKPGVDYTITVYAVTLTHSNIIRYVPISINYRTEIDKPSQHHHHHH
Rank ascending by ARE-luciferase IC50. Rank the items, then write their labels in that order.
1, 2, 3
